Molecular target: DNA (cytosine-5)-methyltransferase 1 (Homo sapiens) (UniProt P26358)
Sequence (P26358 504-1616 limits assumed): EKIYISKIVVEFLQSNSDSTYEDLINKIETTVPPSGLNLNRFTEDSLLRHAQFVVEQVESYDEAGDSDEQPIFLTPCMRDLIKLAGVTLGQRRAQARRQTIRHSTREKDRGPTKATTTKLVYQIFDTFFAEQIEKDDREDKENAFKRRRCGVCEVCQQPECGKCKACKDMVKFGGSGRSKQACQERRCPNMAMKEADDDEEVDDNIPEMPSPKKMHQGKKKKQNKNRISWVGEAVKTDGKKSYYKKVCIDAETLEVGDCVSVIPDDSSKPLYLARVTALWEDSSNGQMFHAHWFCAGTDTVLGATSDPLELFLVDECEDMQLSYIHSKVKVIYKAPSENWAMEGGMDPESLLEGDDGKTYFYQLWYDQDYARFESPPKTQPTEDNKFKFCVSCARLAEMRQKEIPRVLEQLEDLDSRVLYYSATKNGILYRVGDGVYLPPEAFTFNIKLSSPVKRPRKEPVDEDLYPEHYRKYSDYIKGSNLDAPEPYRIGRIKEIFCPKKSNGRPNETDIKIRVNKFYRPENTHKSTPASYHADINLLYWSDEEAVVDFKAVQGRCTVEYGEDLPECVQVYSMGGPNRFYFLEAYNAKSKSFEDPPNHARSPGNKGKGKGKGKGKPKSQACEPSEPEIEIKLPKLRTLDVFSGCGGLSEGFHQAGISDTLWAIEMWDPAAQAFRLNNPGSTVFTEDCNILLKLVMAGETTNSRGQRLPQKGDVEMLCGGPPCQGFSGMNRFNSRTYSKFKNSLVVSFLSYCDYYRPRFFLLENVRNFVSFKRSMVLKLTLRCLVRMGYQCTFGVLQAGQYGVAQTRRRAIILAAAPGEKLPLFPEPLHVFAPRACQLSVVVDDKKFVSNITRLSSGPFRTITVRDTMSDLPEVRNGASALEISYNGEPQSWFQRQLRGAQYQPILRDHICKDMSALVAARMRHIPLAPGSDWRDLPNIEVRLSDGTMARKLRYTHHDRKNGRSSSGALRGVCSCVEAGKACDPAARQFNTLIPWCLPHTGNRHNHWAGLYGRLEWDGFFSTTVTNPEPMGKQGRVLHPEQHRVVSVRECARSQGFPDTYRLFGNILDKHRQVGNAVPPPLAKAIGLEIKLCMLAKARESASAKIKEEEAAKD
Assay: inhibition of DNA methyltransferase DNMT1 – biochemical, molecular beacon, fluorescence, HinP1I cleavage, uHTS, primary screen (AID 588458)
Details: at 10 µM, active compounds read high
Among all 360,000 compounds or so, about 3,000 (0.83%) were called active. The list comes from a sample in which actives are over-represented; it also holds close analogues and randomly drawn compounds.
OBSERVATION TYPE: inhibition (reported as % activation of signal) (%)
Value expressed in %; do not type the unit.

> print(dat)
                                   molecule  unit.label  value.measured
1  COc1ccc(S(=O)(=O)N2CCN(C(C)C(=O)Nc3ccc(C(C)C)cc3)CC2)cc1 (stereo unspecified)           %            2.17
2  CCc1cc(CNC(=O)CC2C(=O)NCCN2Cc2ccccc2C(F)(F)F)on1 (stereo unspecified)           %           -2.03
3      O=C(COC(=O)Cc1ccc(Cl)cc1Cl)NCc1ccco1           %           -2.23
4  Cc1cn([C@H]2C[C@H](O)[C@@H](/C=C/C(=O)NCCCc3ccccc3)O2)c(=O)[nH]c1=O           %               1

Fill in the blank: the reported inhibition (reported as % activation of signal) of "CCCc1nc(-c2cc3cc(C)ccc3[nH]c2=O)no1" is ____.
-2.69

Fill in the blank: the reported inhibition (reported as % activation of signal) of "Cc1ccc(C(=O)NNC(=O)c2cc3cc4ccccc4nc3s2)cc1" is ____.
54.4
